system: cornea of rats with dry eye syndrome (ELGE); assay: Corneal permeability of fluorescent dye (corneal damage) in rats with ELGE-induced dry eye syndrome; format: in vivo, rat; details: 0.3% solution, day 14 after the administration, study of YDE-029 to YDE-043 (Table 17)
Non-standard residues stand in square brackets, D forms with d. Residues, ends and D or L forms follow the SMILES beside them. Pro(4-oxo) = O=C1CN[C@H](C(=O)O)C1; Hyp = O=C(O)[C@@H]1C[C@@H](O)CN1
Provide the recorded Permeability of fluorescent dye (%) for the entries that follow.
Answers are plain numbers, in %.

compound: CC(C)C[C@H](NC(=O)CNC(=O)[C@H](CC(C)C)NC(=O)[C@H](CCC(N)=O)NC(=O)CNC(=O)[C@@H]1C[C@@H](O)CN1)C(=O)N[C@@H](C)C(=O)NCC(=O)N1CCC[C@H]1C(=O)N[C@@H](CCC(=O)O)C(=O)O [YDE-031, HyP-Gly-Gln-Leu-Gly-Leu-Ala-Gly-Pro-Glu] (H-[Hyp]GQLGLAGPE-OH)
endpoint.unit: %
Permeability of fluorescent dye (%): 33.35

compound: CC(C)C[C@H](NC(=O)CNC(=O)[C@H](CC(C)C)NC(=O)[C@H](CCC(N)=O)NC(=O)CNC(=O)[C@@H]1C[C@@H](O)CN1)C(=O)O [YDE-042, HyP-Gly-Gln-Leu-Gly-Leu] (H-[Hyp]GQLGL-OH)
endpoint.unit: %
Permeability of fluorescent dye (%): 20.72

compound: CC(C)C[C@H](NC(=O)CNC(=O)[C@H](CC(C)C)NC(=O)[C@H](CCC(N)=O)NC(=O)CNC(=O)[C@@H]1CC(=O)CN1)C(=O)N[C@@H](C)C(=O)NCC(=O)N1CCC[C@H]1C(=O)N[C@@H](CCCCN)C(=O)O [YDE-035] (H-[Pro(4-oxo)]GQLGLAGPK-OH)
endpoint.unit: %
Permeability of fluorescent dye (%): 27.62

get_value(item= CC(C)C[C@H](NC(=O)[C@@H]1CCCN1C(=O)CNC(=O)[C@H](C)NC(=O)[C@H](CC(C)C)NC(=O)CNC(=O)[C@H](CC(C)C)NC(=O)[C@H](CCC(N)=O)NC(=O)CNC(=O)[C@@H]1C[C@@H](O)CN1)C(=O)O [YDE-030, HyP-Gly-Gln-Leu-Gly-Leu-Ala-Gly-Pro-Leu] (H-[Hyp]GQLGLAGPL-OH) , readout=Permeability of fluorescent dye (%)) returns 30.60
